Numbers sourced from the kinase profiling compilation of Christmann-Franck et al. (2016).

Tested Target: IKBKE (human) (UniProt Q14164)
Sequence (Q14164 whole entry, looked up): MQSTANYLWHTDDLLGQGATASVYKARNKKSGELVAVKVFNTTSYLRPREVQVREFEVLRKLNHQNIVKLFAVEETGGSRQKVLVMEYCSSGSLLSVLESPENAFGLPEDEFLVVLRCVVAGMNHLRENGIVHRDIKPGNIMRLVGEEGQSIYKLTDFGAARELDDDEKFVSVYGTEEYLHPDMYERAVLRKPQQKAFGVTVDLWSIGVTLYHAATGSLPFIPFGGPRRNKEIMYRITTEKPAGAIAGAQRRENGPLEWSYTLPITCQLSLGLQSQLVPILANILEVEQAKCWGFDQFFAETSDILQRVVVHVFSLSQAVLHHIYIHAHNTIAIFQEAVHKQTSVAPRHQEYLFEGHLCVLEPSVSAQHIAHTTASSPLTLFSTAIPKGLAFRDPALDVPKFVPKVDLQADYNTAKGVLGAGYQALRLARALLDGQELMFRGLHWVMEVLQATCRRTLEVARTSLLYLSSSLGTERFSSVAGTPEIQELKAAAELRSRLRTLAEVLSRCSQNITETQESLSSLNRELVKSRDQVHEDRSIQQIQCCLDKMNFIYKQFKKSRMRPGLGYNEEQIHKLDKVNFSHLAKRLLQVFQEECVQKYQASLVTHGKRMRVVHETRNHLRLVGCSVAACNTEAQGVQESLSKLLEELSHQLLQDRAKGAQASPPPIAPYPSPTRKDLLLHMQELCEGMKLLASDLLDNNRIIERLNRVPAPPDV
Test Settings: compound 1.0 µM
In this section we review reported per cent of control values for a set of compounds.
Value Kind: per cent of control (%)

- CC(C)n1nc(-c2cc3cc(O)ccc3[nH]2)c2c(N)ncnc21: 86
- CCC(=O)N1CCN(c2ccc(-n3c(=O)ccc4cnc5ccc(-c6cnc7ccccc7c6)cc5c43)cc2C(F)(F)F)CC1: 96
- COC(=O)Nc1ccc(-c2nc(N3CCOCC3)c3cnn(C4CCN(C(=O)OC)CC4)c3n2)cc1: 90
- COc1ccc(-c2ccc3c(N4CCOCC4)nc(N4C[C@@H](C)O[C@@H](C)C4)nc3n2)cc1CO: 99

---

Tested Target: PIM1 (human)
Test Settings: compound 1.0 µM
Value Kind: per cent of control (%)

* CCC(=O)N1CCN(c2ccc(-n3c(=O)ccc4cnc5ccc(-c6cnc7ccccc7c6)cc5c43)cc2C(F)(F)F)CC1 | 82
* CC(C)n1nc(-c2cc3cc(O)ccc3[nH]2)c2c(N)ncnc21 | 74
* COC(=O)Nc1ccc(-c2nc(N3CCOCC3)c3cnn(C4CCN(C(=O)OC)CC4)c3n2)cc1 | 117
* COc1ccc(-c2ccc3c(N4CCOCC4)nc(N4C[C@@H](C)O[C@@H](C)C4)nc3n2)cc1CO | 89

---

In this section we review reported per cent of control values for a set of compounds.
Tested Target: RPS6KA1 KD1 KD2 (human)
Test Settings: compound 1.0 µM
Value Kind: per cent of control (%)

• COC(=O)Nc1ccc(-c2nc(N3CCOCC3)c3cnn(C4CCN(C(=O)OC)CC4)c3n2)cc1 = 100
• CC(C)n1nc(-c2cc3cc(O)ccc3[nH]2)c2c(N)ncnc21 = 53
• COc1ccc(-c2ccc3c(N4CCOCC4)nc(N4C[C@@H](C)O[C@@H](C)C4)nc3n2)cc1CO = 100
• CCC(=O)N1CCN(c2ccc(-n3c(=O)ccc4cnc5ccc(-c6cnc7ccccc7c6)cc5c43)cc2C(F)(F)F)CC1 = 93

---

System: SGK1 (human), O00141 [S422D]
Sequence (O00141 whole entry S422D, looked up): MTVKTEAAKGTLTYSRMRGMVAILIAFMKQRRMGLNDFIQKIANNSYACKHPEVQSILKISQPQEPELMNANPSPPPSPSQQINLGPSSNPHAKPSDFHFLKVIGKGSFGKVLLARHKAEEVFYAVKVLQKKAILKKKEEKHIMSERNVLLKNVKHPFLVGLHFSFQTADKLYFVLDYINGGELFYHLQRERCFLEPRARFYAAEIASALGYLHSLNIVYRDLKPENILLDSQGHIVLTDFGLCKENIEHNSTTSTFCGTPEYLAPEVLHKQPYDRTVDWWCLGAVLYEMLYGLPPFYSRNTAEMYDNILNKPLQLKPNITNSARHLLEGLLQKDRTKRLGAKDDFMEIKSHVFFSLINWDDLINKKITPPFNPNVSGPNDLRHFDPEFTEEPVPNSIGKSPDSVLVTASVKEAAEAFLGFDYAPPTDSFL
Test Settings: compound 1.0 µM
Value Kind: per cent of control (%)

- CCC(=O)N1CCN(c2ccc(-n3c(=O)ccc4cnc5ccc(-c6cnc7ccccc7c6)cc5c43)cc2C(F)(F)F)CC1: 79
- CC(C)n1nc(-c2cc3cc(O)ccc3[nH]2)c2c(N)ncnc21: 85
- COC(=O)Nc1ccc(-c2nc(N3CCOCC3)c3cnn(C4CCN(C(=O)OC)CC4)c3n2)cc1: 85
- COc1ccc(-c2ccc3c(N4CCOCC4)nc(N4C[C@@H](C)O[C@@H](C)C4)nc3n2)cc1CO: 76

---

In this section we review reported kinase still bound, per cent of control values for a set of compounds.
Tested Target: TSSK1B (human) (UniProt Q9BXA7)
Sequence (Q9BXA7 whole entry, looked up): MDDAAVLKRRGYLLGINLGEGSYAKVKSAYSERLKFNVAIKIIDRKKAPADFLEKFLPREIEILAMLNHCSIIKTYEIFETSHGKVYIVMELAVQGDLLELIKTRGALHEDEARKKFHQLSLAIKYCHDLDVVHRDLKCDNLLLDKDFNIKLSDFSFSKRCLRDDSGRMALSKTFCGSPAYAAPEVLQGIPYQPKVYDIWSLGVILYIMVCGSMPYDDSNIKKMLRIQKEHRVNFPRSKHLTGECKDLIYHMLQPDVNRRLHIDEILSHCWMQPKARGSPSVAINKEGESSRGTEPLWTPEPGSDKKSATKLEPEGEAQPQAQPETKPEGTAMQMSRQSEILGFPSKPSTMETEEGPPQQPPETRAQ
Procedure Text: KINOMEscan competition binding
Test Settings: compound 10.0 µM
Value Kind: kinase still bound, per cent of control (%)

- CC(C)n1nc(-c2cc3cc(O)ccc3[nH]2)c2c(N)ncnc21: 83
- CCC(=O)N1CCN(c2ccc(-n3c(=O)ccc4cnc5ccc(-c6cnc7ccccc7c6)cc5c43)cc2C(F)(F)F)CC1: 100
- COC(=O)Nc1ccc(-c2nc(N3CCOCC3)c3cnn(C4CCN(C(=O)OC)CC4)c3n2)cc1: 100
- COc1ccc(-c2ccc3c(N4CCOCC4)nc(N4C[C@@H](C)O[C@@H](C)C4)nc3n2)cc1CO: 91

---

Tested Target: CDK15 (human) (UniProt Q96Q40)
Sequence (Q96Q40 whole entry, looked up): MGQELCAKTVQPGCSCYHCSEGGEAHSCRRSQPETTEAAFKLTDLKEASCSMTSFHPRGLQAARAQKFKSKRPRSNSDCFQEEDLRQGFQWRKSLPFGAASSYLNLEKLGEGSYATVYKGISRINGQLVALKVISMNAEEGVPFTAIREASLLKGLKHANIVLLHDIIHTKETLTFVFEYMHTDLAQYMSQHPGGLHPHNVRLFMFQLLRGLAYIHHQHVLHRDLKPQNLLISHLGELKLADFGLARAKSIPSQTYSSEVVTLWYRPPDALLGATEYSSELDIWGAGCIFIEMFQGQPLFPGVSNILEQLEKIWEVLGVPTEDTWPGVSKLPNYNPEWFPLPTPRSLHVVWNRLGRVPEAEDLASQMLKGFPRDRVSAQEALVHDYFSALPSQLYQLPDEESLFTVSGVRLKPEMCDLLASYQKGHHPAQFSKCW
Procedure Text: KINOMEscan competition binding
Test Settings: compound 10.0 µM
Value Kind: per cent of control (%)

• COc1ccc(-c2ccc3c(N4CCOCC4)nc(N4C[C@@H](C)O[C@@H](C)C4)nc3n2)cc1CO = 95
• CCC(=O)N1CCN(c2ccc(-n3c(=O)ccc4cnc5ccc(-c6cnc7ccccc7c6)cc5c43)cc2C(F)(F)F)CC1 = 88
• CC(C)n1nc(-c2cc3cc(O)ccc3[nH]2)c2c(N)ncnc21 = 96
• COC(=O)Nc1ccc(-c2nc(N3CCOCC3)c3cnn(C4CCN(C(=O)OC)CC4)c3n2)cc1 = 100

---

In this section we review reported kinase still bound, per cent of control values for a set of molecules.
Tested Target: EIF2AK2 (human)
Procedure Text: KINOMEscan competition binding
Test Settings: compound 10.0 µM
Value Kind: kinase still bound, per cent of control (%)

* COC(=O)Nc1ccc(-c2nc(N3CCOCC3)c3cnn(C4CCN(C(=O)OC)CC4)c3n2)cc1 | 100
* COc1ccc(-c2ccc3c(N4CCOCC4)nc(N4C[C@@H](C)O[C@@H](C)C4)nc3n2)cc1CO | 100
* CC(C)n1nc(-c2cc3cc(O)ccc3[nH]2)c2c(N)ncnc21 | 48
* CCC(=O)N1CCN(c2ccc(-n3c(=O)ccc4cnc5ccc(-c6cnc7ccccc7c6)cc5c43)cc2C(F)(F)F)CC1 | 88

---

Tested Target: UniProtKB Q9H422
Sequence (Q9H422 whole entry, looked up): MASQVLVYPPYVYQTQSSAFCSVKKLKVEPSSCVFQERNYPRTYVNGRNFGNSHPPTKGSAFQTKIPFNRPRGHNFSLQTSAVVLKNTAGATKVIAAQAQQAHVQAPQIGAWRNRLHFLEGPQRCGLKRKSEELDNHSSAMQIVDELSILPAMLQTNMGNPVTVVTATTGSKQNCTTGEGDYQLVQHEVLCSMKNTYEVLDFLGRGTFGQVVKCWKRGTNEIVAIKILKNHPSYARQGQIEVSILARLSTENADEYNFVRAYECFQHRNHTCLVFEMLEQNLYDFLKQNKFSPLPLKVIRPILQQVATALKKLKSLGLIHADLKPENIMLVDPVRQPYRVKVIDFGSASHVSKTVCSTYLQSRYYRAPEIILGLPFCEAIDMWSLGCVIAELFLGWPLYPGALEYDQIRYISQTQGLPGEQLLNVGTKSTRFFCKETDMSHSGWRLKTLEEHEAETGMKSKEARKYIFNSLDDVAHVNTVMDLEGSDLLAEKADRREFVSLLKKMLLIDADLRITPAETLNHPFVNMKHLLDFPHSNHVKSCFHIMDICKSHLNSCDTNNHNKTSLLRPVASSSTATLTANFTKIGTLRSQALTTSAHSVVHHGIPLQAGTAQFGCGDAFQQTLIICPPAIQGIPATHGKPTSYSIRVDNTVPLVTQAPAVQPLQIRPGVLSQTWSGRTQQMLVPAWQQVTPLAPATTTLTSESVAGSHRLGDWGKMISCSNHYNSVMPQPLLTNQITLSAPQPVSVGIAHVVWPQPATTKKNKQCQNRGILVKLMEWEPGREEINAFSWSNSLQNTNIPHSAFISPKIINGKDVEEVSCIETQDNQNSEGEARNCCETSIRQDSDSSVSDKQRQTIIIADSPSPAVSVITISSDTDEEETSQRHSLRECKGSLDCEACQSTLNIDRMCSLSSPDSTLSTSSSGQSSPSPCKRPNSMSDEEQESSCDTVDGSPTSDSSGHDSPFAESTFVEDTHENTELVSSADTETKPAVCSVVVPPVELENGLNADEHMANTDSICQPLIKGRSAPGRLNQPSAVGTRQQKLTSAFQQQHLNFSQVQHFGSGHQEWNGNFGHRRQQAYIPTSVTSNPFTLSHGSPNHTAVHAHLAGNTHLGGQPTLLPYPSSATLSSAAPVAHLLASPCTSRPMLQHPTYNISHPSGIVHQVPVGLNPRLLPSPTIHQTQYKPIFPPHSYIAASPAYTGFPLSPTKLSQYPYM
Procedure Text: KINOMEscan competition binding
Test Settings: compound 10.0 µM
In this section we review reported kinase still bound, per cent of control values for a set of compounds.
Value Kind: kinase still bound, per cent of control (%)

- COC(=O)Nc1ccc(-c2nc(N3CCOCC3)c3cnn(C4CCN(C(=O)OC)CC4)c3n2)cc1: 72
- COc1ccc(-c2ccc3c(N4CCOCC4)nc(N4C[C@@H](C)O[C@@H](C)C4)nc3n2)cc1CO: 76
- CC(C)n1nc(-c2cc3cc(O)ccc3[nH]2)c2c(N)ncnc21: 0.9
- CCC(=O)N1CCN(c2ccc(-n3c(=O)ccc4cnc5ccc(-c6cnc7ccccc7c6)cc5c43)cc2C(F)(F)F)CC1: 86

---

Tested Target: BTK (human)
Test Settings: compound 1.0 µM
In this section we review reported per cent of control values for a set of compounds.
Value Kind: per cent of control (%)

* COC(=O)Nc1ccc(-c2nc(N3CCOCC3)c3cnn(C4CCN(C(=O)OC)CC4)c3n2)cc1 | 116
* COc1ccc(-c2ccc3c(N4CCOCC4)nc(N4C[C@@H](C)O[C@@H](C)C4)nc3n2)cc1CO | 85
* CC(C)n1nc(-c2cc3cc(O)ccc3[nH]2)c2c(N)ncnc21 | 20
* CCC(=O)N1CCN(c2ccc(-n3c(=O)ccc4cnc5ccc(-c6cnc7ccccc7c6)cc5c43)cc2C(F)(F)F)CC1 | 104

---

Tested Target: CDK17 (human) (UniProt Q00537)
Sequence (Q00537 whole entry, looked up): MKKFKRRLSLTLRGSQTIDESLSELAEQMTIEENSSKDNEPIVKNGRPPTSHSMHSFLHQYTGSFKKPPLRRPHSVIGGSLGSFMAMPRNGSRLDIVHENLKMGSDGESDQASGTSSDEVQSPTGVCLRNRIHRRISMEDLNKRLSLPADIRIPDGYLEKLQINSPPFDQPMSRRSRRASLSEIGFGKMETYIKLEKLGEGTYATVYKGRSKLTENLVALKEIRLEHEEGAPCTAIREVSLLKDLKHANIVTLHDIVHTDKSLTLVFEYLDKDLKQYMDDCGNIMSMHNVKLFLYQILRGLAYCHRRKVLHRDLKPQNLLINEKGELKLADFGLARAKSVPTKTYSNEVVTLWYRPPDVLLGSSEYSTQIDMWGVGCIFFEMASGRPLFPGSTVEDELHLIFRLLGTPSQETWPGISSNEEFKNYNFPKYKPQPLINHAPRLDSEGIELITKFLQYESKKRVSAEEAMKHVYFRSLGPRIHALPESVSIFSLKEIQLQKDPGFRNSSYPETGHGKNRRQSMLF
Procedure Text: KINOMEscan competition binding
Test Settings: compound 10.0 µM
Value Kind: per cent of control (%)

- COc1ccc(-c2ccc3c(N4CCOCC4)nc(N4C[C@@H](C)O[C@@H](C)C4)nc3n2)cc1CO: 100
- CCC(=O)N1CCN(c2ccc(-n3c(=O)ccc4cnc5ccc(-c6cnc7ccccc7c6)cc5c43)cc2C(F)(F)F)CC1: 97
- CC(C)n1nc(-c2cc3cc(O)ccc3[nH]2)c2c(N)ncnc21: 100
- COC(=O)Nc1ccc(-c2nc(N3CCOCC3)c3cnn(C4CCN(C(=O)OC)CC4)c3n2)cc1: 100

---

Tested Target: CaMK1 (human)
Procedure Text: KINOMEscan competition binding
Test Settings: compound 10.0 µM
In this section we review reported kinase still bound, per cent of control values for a set of compounds.
Value Kind: kinase still bound, per cent of control

* COc1ccc(-c2ccc3c(N4CCOCC4)nc(N4C[C@@H](C)O[C@@H](C)C4)nc3n2)cc1CO | 90%
* CCC(=O)N1CCN(c2ccc(-n3c(=O)ccc4cnc5ccc(-c6cnc7ccccc7c6)cc5c43)cc2C(F)(F)F)CC1 | 50%
* CC(C)n1nc(-c2cc3cc(O)ccc3[nH]2)c2c(N)ncnc21 | 45%
* COC(=O)Nc1ccc(-c2nc(N3CCOCC3)c3cnn(C4CCN(C(=O)OC)CC4)c3n2)cc1 | 96%

---

Tested Target: IGF1R (human) (UniProt P08069)
Sequence (P08069 whole entry, looked up): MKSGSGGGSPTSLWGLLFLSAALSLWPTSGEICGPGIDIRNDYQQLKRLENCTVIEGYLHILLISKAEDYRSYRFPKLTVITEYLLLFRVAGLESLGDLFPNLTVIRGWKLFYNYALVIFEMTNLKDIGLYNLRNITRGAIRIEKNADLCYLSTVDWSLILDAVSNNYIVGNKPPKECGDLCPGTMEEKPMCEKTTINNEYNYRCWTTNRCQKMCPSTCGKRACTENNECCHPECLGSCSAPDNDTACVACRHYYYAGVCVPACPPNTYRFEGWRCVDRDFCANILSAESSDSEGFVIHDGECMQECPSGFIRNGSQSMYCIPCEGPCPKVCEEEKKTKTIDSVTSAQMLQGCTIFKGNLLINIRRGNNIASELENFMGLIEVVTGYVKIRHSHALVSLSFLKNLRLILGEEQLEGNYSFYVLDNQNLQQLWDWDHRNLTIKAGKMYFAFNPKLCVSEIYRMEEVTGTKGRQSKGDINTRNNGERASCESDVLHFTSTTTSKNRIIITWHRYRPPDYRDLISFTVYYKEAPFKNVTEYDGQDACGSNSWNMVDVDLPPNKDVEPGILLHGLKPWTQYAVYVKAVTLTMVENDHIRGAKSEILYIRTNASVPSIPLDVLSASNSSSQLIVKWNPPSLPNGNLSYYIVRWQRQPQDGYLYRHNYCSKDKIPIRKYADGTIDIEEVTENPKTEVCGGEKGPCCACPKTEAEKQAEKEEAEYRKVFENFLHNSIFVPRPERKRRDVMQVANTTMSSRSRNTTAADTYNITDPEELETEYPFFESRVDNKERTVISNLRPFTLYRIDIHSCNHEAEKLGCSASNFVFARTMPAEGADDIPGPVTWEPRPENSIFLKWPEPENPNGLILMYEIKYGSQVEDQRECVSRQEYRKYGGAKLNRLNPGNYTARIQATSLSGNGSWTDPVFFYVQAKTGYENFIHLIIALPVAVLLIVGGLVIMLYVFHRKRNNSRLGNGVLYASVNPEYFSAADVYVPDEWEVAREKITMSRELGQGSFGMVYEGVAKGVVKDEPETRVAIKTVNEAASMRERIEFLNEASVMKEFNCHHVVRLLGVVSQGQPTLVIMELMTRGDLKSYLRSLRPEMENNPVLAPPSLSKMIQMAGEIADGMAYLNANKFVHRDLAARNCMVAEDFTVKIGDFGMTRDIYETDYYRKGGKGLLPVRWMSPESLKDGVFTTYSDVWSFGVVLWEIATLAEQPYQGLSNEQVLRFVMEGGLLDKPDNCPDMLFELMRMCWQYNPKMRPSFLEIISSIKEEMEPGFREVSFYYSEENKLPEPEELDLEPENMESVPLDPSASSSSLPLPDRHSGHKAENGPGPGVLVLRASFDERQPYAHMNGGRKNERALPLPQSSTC
Test Settings: compound 1.0 µM
In this section we review reported per cent of control values for a set of compounds.
Value Kind: per cent of control (%)

- CC(C)n1nc(-c2cc3cc(O)ccc3[nH]2)c2c(N)ncnc21: 103
- CCC(=O)N1CCN(c2ccc(-n3c(=O)ccc4cnc5ccc(-c6cnc7ccccc7c6)cc5c43)cc2C(F)(F)F)CC1: 100
- COC(=O)Nc1ccc(-c2nc(N3CCOCC3)c3cnn(C4CCN(C(=O)OC)CC4)c3n2)cc1: 108
- COc1ccc(-c2ccc3c(N4CCOCC4)nc(N4C[C@@H](C)O[C@@H](C)C4)nc3n2)cc1CO: 117

---

Tested Target: UniProtKB O75116
Procedure Text: KINOMEscan competition binding
Test Settings: compound 10.0 µM
In this section we review reported kinase still bound, per cent of control values for a set of compounds.
Value Kind: kinase still bound, per cent of control (%)

- COc1ccc(-c2ccc3c(N4CCOCC4)nc(N4C[C@@H](C)O[C@@H](C)C4)nc3n2)cc1CO: 21
- CC(C)n1nc(-c2cc3cc(O)ccc3[nH]2)c2c(N)ncnc21: 60
- COC(=O)Nc1ccc(-c2nc(N3CCOCC3)c3cnn(C4CCN(C(=O)OC)CC4)c3n2)cc1: 79
- CCC(=O)N1CCN(c2ccc(-n3c(=O)ccc4cnc5ccc(-c6cnc7ccccc7c6)cc5c43)cc2C(F)(F)F)CC1: 50
